target-entity: BCL-XLΔC (Homo sapiens, UniProt Q07817)
Sequence (Q07817 1-212, stated change not applied): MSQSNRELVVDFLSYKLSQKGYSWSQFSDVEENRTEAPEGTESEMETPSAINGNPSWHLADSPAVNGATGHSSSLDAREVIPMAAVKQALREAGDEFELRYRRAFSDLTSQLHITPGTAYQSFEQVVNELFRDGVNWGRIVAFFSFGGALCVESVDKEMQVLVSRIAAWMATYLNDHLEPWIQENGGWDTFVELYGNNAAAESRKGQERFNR
measurement-notes: fluorescence polarization
reported-endpoint: IC50 (nM)
Give bare numbers, in nM.

Provide each entry's IC50 from the list below.
1. IWIAQELRXIGDXFNAIYARR
2. IWIAQELRXIGDXFNAYYIRR

1: 59.4; 2: 45.7
